experiment.description: folding enthalpy; higher = less favourable; fluorescence melt of hairpins on a sequencing array, two-state fit
test.settings: sodium 0.088 M
metric.name: folding enthalpy (kcal/mol)
Could you give me the number in kcal/mol? Just the number is fine.

GCCTGGCGAAAGCGCGGC (((..((....))..))) ... -19
GATCCGAAGCGGATC ((((((...)))))) ... -37

Read the next record carefully.
Requested read-out: folding enthalpy. Entry: GATCCTTTCTAGGATC ((((((....))))))
-40.5

====

experiment.description: melting temperature; fluorescence melt of hairpins on a sequencing array, two-state fit, raised by 9.35 °C to match UV melts
test.settings: sodium 0.088 M
Kind request: treat 50 °C as inclusive, so Tm at 50 °C or higher is criterion met, anything lower is criterion not met.

As a guide, the following entries are already answered.
GAGGTTGGAAACGACTTC ((.((.(....).)).)) ... criterion not met
GCAATCGAAAGATGTTGC ((((((....)))..))) ... criterion not met
CGCTGACGGAAACGTGCG (((..(((....)))))) ... criterion not met
GCCGACGAAAGTCTAGGC ((((((....)))..))) ... criterion met

Determine whether measured Tm meets or exceeds 50 °C for GATCAGTGTACTGATC ((((((....))))))
criterion met

What do you have for GAACGACGAAAGTCATTC (((.(((....))).))) ?
criterion not met

Here is the next sequence: GAGTGCGAAAGCATTCTC ((((((....)))..)))
criterion met

Here is the next sequence: GCGCCGCCGAAAGGCCGC (((..(((....))))))
criterion met

Next sequence up: GAGATGCGAAAGCAACTC (((.(((....))).)))
criterion met

====

experiment.description: melting temperature; fluorescence melt of hairpins on a sequencing array, two-state fit, raised by 9.35 °C to match UV melts
test.settings: sodium 0.088 M
Below, each entry is listed with its recorded Tm.
# value in °C; strip the unit string

GCCAGCGAAAGCTTGGGC ((((((....)))..))) ... 52.5
GATCTGTAAACAGATC ((((((....)))))) ... 50.3
AATGGGAAACCATT (((((....))))) ... 37.7

Query: Tm; subject: GCTCTAGAAATAGAGC ((((((....))))))
50.9

====

experiment.description: folding enthalpy; higher = less favourable; fluorescence melt of hairpins on a sequencing array, two-state fit
test.settings: sodium 0.088 M
Heads up, the class ranges for folding enthalpy are bucket 1 = under -30 kcal/mol, bucket 2 = from -30 kcal/mol up to -20 kcal/mol, bucket 3 = -20 kcal/mol and over

GTGGCTGGAAACAGCCGC (.(((((....))))).) ... bucket 3
GACTAAGCGAAAGCTGTC (((..(((....)))))) ... bucket 3

Returns: class label. Input: GATCATATGAATGATC ((((((....))))))
bucket 1

Next sequence up: GATCACTGTGGTGATC ((((((....))))))
bucket 1

Now consider GAAACAGGAAACTGCTTC (((.(((....))).))) .
bucket 2

Then GATCATAATTATGATC ((((((....)))))) ?
bucket 1
